This collection of values is drawn from ChEMBL document CHEMBL1949603.

test: Volume of distribution at steady state in Sprague-Dawley rat at 1 mg/kg, iv; type: ADME, organism-based; design: dose 1 mg/kg, route intravenous; settings: in vivo, read-out: Vdss
reportedMetric: Vd (L/kg)
Give the quantity in L/kg, number only.

Prompt: Query (molecule): Cc1ccc(CCCC(=O)c2ccc(CC[C@@](C)(N)CO)n2C)cc1 ; field requested: Vd
Response: 18.1

###

assay: Oral bioavailability in Sprague-Dawley rat at 0.1 mg/kg; assay type: ADME, organism-based; settings: in vivo
reportedMetric: bioavailability (%)
Give the quantity in %, number only.

Prompt: Query (molecule): Cc1ccc(CCCC(=O)c2ccc(CC[C@@](C)(N)CO)n2C)cc1 ; field requested: bioavailability
Response: 72.2
